Listed next: entries and their corresponding Reactivity (%).
# system-under-test: S#031: CAR with VH-L1-VL scFv, Human 3rd-generation_hIL7_hCCL19_HSVtk
# procedure-summary: flow cytometry on CAR-T cells; PE-labeled secondary antibody; PE-positive cells / total cells

binder	Reactivity (%)
2D12-B12 (antibody, V domains shown) VH: EVKLVESGGGLVQPGRSLKLSCAASGFNFNDYWMGWVRQAPGKGLEWIGEIKKDSSIINYIPSLKDKFTISRDNAQNTLYLQMSKLGSEDTAIYYCARGVEYYGYHYWGQGTLVTVSS VL: DIVMTQSPSSLAVSAGETVTINCKSSQSLLYSGNQKNYLAWYQQKPGQSPKLLIYWASTRHSGVPARFIGSGSGSDFTLTISSVQAEDLAIYCCQQYYDIPYTFGAGTKLELK	64.6
3A4-A10-7 (antibody, V domains shown) VH: QVQLQQSGAALVKPGASVKMSCKASGYTFTDCWVSWVKQSHGKSLEWIGEIHPNSGTTNFNEKFKGKATLTVDKSTSTAYMELSRLTSEDSAIYYCTRAYGGYPFDYWGQGVMVTVSS VL: ADLVLTQPKSVSTSLESTVKLSCKLNSGNIGRYYMHWYQQHEGRSPTNMIYRDDKRPDGVPDRFSGSIDSSSNSAFLTINNVQTEDEAIYFCHSYDSSINIFGGGTKLTVLG	45.3
4B9-B11 (antibody, V domains shown) VH: QMQLKESGPGLVQPSETLSLTCTVSGFSLTSYSVSWVRQPSGKGPEWMGRMYYDGDTAYNSALKSRLSISRDTSKNQVFLKMNSLQTDDTGTYYCTRSIGAEDYWGQGVMVTVSS VL: TSYELIQPPSASVTLGNTVSLTCVGDELPKRYAYWYQQKPDQSIVRVIYEDSKRPSGISDRFSGSSSGTTATLTIRDAQNEDEADYYCHSTYSDDKLRIFGGGTKLTVLG	9.7
3E7-C1 (antibody, V domains shown) VH: QVQMKESGPGLVQPSETLSLTCTVSGFSLTSYGVSWVRQPSGKGPEWMGRLWNDGDTAYNSALKSRLSISRDTSKNQVFLKMNSLQTDDTGTYYCTTMNGYKDYWGQGVMVTVSS VL: TSYELIQPPSASVTLGNTVSLTCVGDELPKRYAYWYQQKPDQSIVRVIYEDSKRPSGISDRFSGSSSGTTATLTIRDAQAEDEADYYCHSTYSDDKLRIFGGGTKLTVLG	2.2
